Provide the recorded Partition coefficient for the entries that follow.
# METHOD SUMMARY: Compound was evaluated for the octanol/water partition coefficient at 37 degree Celsius at 3.0 hr
# Type: physicochemical
Answer with a number only.

Exercise: Tell me the measured Partition coefficient of CCCCC(=O)O[C@H]1C(n2cnc3c(N)ncnc32)O[C@H](CO)[C@@H]1O (some centres undefined) , please.
Solution: 2.5

Exercise: What value of measured Partition coefficient is listed for CC(=O)O[C@H]1C(n2cnc3c(N)ncnc32)O[C@H](CO)[C@@H]1O (some centres undefined) ?
Solution: 0.134

Exercise: Would you kindly share the measured Partition coefficient for CCCC(=O)O[C@H]1C(n2cnc3c(N)ncnc32)O[C@H](CO)[C@@H]1O (some centres undefined) ?
Solution: 0.911

Exercise: Partition coefficient lookup needed for CCC(=O)O[C@H]1C(n2cnc3c(N)ncnc32)O[C@H](CO)[C@@H]1O (some centres undefined) , thanks.
Solution: 0.359
